Hello, the source for this data is patent US12227500B2, in case you need it.

- SYSTEM_TESTED: panel of 60 human kinases (Homo sapiens, UniProt O75460)
- Construct: purchased Reaction Biology Corp
- Sequence (O75460 19-977): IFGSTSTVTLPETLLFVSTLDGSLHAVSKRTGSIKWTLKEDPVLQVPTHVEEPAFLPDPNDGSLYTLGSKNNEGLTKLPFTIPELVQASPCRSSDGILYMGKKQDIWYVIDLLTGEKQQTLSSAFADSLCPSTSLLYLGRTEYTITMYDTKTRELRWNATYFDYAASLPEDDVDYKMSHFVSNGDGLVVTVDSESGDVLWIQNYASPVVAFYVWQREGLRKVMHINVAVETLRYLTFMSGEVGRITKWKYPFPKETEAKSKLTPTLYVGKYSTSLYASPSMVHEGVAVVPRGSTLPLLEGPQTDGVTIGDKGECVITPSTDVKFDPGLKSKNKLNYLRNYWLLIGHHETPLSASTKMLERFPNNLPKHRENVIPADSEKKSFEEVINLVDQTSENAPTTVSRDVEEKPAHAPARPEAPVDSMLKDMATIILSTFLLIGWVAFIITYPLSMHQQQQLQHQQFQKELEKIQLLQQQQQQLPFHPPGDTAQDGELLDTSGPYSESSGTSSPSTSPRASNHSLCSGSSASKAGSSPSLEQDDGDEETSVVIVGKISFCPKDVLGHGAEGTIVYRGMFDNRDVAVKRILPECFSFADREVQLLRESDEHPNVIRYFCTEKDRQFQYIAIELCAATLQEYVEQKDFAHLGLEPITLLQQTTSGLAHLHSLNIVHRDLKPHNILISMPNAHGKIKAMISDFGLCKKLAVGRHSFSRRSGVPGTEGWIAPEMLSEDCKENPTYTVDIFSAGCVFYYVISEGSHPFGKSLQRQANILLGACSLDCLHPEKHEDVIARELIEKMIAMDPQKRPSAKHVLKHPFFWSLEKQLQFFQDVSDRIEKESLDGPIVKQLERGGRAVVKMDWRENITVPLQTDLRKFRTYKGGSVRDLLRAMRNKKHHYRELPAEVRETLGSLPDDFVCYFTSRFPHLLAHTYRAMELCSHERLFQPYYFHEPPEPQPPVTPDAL
- PROCEDURE_TEXT: Radiolabeled ATP kinase assay, panel of 60 kinases (Table S5)
- Type: biochemical
- COND: ERN1/IRE1; 0.1 μM; 10 μM ATP; read-out: % Enzyme Activity (relative to DSMO controls)
READOUT_TYPE: remaining activity at 0.1 µM (%)
Hi! Could you send only the number? It should be in %, unit omitted.

Here are 5 compounds together with their reported answers.
- COMPOUND: "Cc1nn(C)c(C)c1-c1c[nH]c2ncc(-c3ccc(CN4CCN(C)CC4)cc3)cc12 [Compound 7ai]"
  remaining activity at 0.1 µM, %: 102
- COMPOUND: "CN1CCN(Cc2ccc(-c3cnc4[nH]cc(-c5cnn(Cc6ccccc6)c5)c4c3)cc2)CC1 [Compound 7ah]"
  remaining activity at 0.1 µM, %: 104
- COMPOUND: "CN1CCN(Cc2ccc(-c3cnc4[nH]cc(-c5ccc6c(c5)OCCO6)c4c3)cc2)CC1 [Compound 7d]"
  remaining activity at 0.1 µM, %: 107
- COMPOUND: "CN1CCN(Cc2ccc(-c3cnc4[nH]cc(-c5ccoc5)c4c3)cc2)CC1 [Compound 7w]"
  remaining activity at 0.1 µM, %: 102
- COMPOUND: "CN1CCN(Cc2ccc(-c3cnc4[nH]cc(-c5ccc6[nH]ccc6c5)c4c3)cc2)CC1 [Compound 1, reference compound]"
  remaining activity at 0.1 µM, %: 108

Request: Bench note: what remaining activity at 0.1 µM did CN1CCN(Cc2ccc(-c3cnc4[nH]cc(-c5ccccc5Cl)c4c3)cc2)CC1 [Compound 7as] show?
Result: 97.5

Request: Bench note: what remaining activity at 0.1 µM did CN1CCN(Cc2ccc(-c3cnc4[nH]cc(-c5ccncc5)c4c3)cc2)CC1 [Compound 7n] show?
Result: 107

Request: Bench note: what remaining activity at 0.1 µM did CN1CCN(Cc2ccc(-c3cnc4[nH]cc(-c5cccc(Cl)c5)c4c3)cc2)CC1 [Compound 7ad] show?
Result: 102

Request: Bench note: what remaining activity at 0.1 µM did COc1ccccc1-c1c[nH]c2ncc(-c3ccc(CN4CCN(C)CC4)cc3)cc12 [Compound 7at] show?
Result: 101
